tested on: HS 578T breast; test: NCI tumour cell line growth inhibition, 48 h
readout-type: TGI

Kindly indicate its recorded TGI. Item: `Cc1nn(-c2ccc(Cl)cc2)c2nc3c(nc12)C(=O)c1ccccc1-3` > 100 µM

Identify the reported TGI for the following entry. CC(C)C(=O)OCC1OC(n2c(Br)nc3c(=O)[nH]c(N)nc32)C(OC(=O)C(C)C)C1OC(=O)C(C)C (centres undefined) > 100 µM

Complete the entry with TGI for CC1OC(OC2C(O)COC(OC3C(C)OC(OC4C(OC(=O)[C@]56CCC(C)(C)C[C@@H]5C5=CCC7[C@@]8(C)C[C@H](O)[C@H](OC9OC(CO)C(O)C(O)C9O)[C@@](C)(CO)[C@@H]8CC[C@@]7(C)[C@]5(C)CC6)OCC(O)C4O)C(O)C3OC3OCC(O)(CO)C3O)C2O)C(O)C(O)C1O (some centres undefined) 35.8 µM

Specify TGI for `O=C(c1ccccc1Br)C(F)(F)F` and stop. > 100 µM

Annotate the molecule `COc1ccc2[nH]cc(C3(c4c[nH]c5ccc(OC)cc45)C(=O)Nc4ccc(F)cc43)c2c1` with its measured TGI. 14.8 µM

State its TGI: `CO/N=C(\COc1ccc2c(c1)oc(=O)c1cc(OC)ccc12)c1ccc(OC)cc1` > 100 µM

Read the entry CC(O)C1(CNc2cc(Cl)nc(N)n2)CCC1 (centres undefined) and write its reported TGI. > 100 µM

Name the recorded TGI of the item `O=C(O)Cc1cc(Cl)ccc1O` in your answer. > 100 µM

Give the measured TGI for `O=c1cnn(C/C=C/CO)c(=O)[nH]1` > 100 µM

Taken from PubChem BioAssay (NCI).
